target: xanthine oxidase (XO) (Bos taurus, UniProt P80457); construct: XO (from bovine milk); purchased Merck (Darmstadt, Germany); host or cells: bovine milk (natural source); assay: XO assay with xanthine as substrate (uric acid formation, HPLC-UV); type: biochemical, bovine; details: inhibitor 20 μmol L^−1; xanthine 5 μmol L^−1;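 note: incubations in 0.05 mol L^−1 sodium phosphate buffer, with uric acid and remaining xanthine both quantified by HPLC-UV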
Sequence (P80457 whole entry): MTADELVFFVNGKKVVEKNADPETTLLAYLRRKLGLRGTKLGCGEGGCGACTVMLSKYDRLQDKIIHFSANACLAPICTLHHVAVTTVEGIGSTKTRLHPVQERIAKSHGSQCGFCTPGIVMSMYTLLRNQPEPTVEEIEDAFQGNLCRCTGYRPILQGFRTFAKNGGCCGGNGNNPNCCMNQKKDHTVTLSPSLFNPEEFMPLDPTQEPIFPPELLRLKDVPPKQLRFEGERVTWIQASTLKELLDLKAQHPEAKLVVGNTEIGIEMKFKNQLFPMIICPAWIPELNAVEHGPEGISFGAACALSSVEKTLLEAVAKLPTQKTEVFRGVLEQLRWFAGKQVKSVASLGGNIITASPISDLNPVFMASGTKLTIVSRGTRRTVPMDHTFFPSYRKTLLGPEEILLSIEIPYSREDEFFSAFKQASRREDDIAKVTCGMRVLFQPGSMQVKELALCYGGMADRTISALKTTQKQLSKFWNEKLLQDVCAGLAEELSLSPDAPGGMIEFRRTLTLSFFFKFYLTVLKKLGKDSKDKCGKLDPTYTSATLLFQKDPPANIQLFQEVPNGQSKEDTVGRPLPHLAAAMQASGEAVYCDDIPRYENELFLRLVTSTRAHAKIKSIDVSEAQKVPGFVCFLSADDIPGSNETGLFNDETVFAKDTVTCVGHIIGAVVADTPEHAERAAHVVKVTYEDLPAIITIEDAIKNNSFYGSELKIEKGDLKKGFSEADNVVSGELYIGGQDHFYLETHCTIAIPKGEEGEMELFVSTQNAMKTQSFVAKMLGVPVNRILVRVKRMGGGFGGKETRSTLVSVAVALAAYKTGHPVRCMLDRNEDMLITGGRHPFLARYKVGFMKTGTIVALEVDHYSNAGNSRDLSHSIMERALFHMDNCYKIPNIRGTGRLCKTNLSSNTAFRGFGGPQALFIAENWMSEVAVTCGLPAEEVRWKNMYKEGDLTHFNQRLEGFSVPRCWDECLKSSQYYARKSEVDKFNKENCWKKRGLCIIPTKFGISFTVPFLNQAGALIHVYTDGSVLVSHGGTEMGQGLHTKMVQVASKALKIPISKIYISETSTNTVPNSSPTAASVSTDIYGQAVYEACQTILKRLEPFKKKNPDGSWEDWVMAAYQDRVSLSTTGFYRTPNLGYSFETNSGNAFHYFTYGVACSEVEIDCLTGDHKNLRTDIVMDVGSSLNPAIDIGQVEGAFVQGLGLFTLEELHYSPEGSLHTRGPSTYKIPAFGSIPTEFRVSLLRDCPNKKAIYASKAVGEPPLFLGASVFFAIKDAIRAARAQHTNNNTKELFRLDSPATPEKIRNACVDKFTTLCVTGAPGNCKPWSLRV
test-readout: decrease in uric acid production (inhibition of XO-catalyzed xanthine oxidation)

COc1cc([C@H]2Oc3cc([C@H]4Oc5cc(O)cc(O)c5C(=O)[C@@H]4O)ccc3O[C@@H]2CO)ccc1O	only weak inhibitors
COc1cc([C@@H]2Oc3cc([C@H]4Oc5cc(O)cc(O)c5C(=O)[C@@H]4O)ccc3O[C@H]2CO)ccc1O	only weak inhibitors

###

target: xanthine oxidase (XO) (Bos taurus); construct: XO (from bovine milk); purchased Merck (Darmstadt, Germany); host or cells: bovine milk (natural source); assay: XO assay with 6MP as substrate (6-thiouric acid formation, HPLC-UV); format: biochemical, bovine; details: relative to APU;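 note: incubation in 0.05 mol L^−1 sodium phosphate buffer, with 6MP and 6-thiouric acid quantified by HPLC-UV and conversion taken as the product share of substrate plus product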
test-readout: α = IC50 of flavonoid/IC50 of positive control, 6MP oxidation

Example entries begin here.
COc1cc([C@@H]2Oc3c(O)cc([C@H]4Oc5cc(O)cc(O)c5C(=O)[C@@H]4O)cc3[C@H]2CO)ccc1O	2.38
COc1cc([C@@H]2Oc3c(O)cc(-c4oc5cc(O)cc(O)c5c(=O)c4O)cc3[C@H]2CO)ccc1O	0.07
COc1cc([C@H]2Oc3cc([C@H]4Oc5cc(O)cc(O)c5C(=O)[C@@H]4O)ccc3O[C@@H]2CO)ccc1OS(=O)(=O)O [SAS, silybin A‐20‐O‐sulfate]	0.69

I: COc1cc([C@@H]2Oc3cc([C@H]4Oc5cc(O)cc(O)c5C(=O)[C@@H]4O)ccc3O[C@H]2CO)ccc1OS(=O)(=O)O [SBS, silybin B‐20‐O‐sulfate]
II: COc1cc(C2Oc3c(O)cc(-c4oc5cc(O)cc(O)c5c(=O)c4O)cc3C2CO)ccc1OS(=O)(=O)O (mixture of isomers) [DSCS, 2,3‐dehydrosilychristin‐19‐O‐sulfate]
Of I and II , which carries the smaller reported α = IC50 of flavonoid/IC50 of positive control, 6MP oxidation figure? Your choice should be expressed through its label.
II
